- Assay comment: growth inhibition, single agent and combos, cell-based, chromothripsis tumors, cisplatin or BGB combos (AID 1671450);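 also: cells exposed to compound for four days; 0% = vehicle DMSO and 100% = cell killing by high DMSO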
- Experimental setup: HDN33 neuroblastoma cells, measured here: with cisplatin IC20 combination, at 0.5 µM, stronger effect = higher value
Would you kindly list inhibition for each of these compounds?
Answers are plain numbers, in %.

// below: answered compounds
What value of measured inhibition is listed for Cn1cc(-c2cnn3c(N)c(Br)c([C@H]4CCCNC4)nc23)cn1 ? 28.6

Likewise for NC(=O)c1ncn(C2OC(CO)C(O)C2O)c1O (stereo not drawn) ? 12.5

Likewise for O=c1[nH]cnc2c1ncn2C1CCC(CO)O1 (stereo not drawn) ? -5.77

Likewise for Nc1ccn(C2CCC(CO)O2)c(=O)n1 (stereo not drawn) ? -15.2

Likewise for COc1nc(N)nc2c1ncn2[C@@H]1O[C@H](CO)[C@@H](O)[C@H]1O ? -13.5

For every listed record, write down its inhibition.
1. COc1ccccc1S(=O)(=O)Nc1ccc2c(c1)CN(C)C(=O)N2
2. C=CC1=C(C)C2=CC3=NC(=C(CC(=O)O)C4=NC(=C(C)C4=C(O)O)C=c4[nH]c(c(C)c4CC)=CC1=N2)C(CCC(=O)O)C3C (stereo not drawn)
3. Cc1cn(C2C=CC(CO)O2)c(=O)[nH]c1=O (stereo not drawn)
4. O=C(CCCCCCC(=O)Nc1ccc(I)cc1)NO
5. CC(C)(C#N)c1ccc(N2C(=O)OCc3cnc4ccc(-c5cnc6ccccc6c5)cc4c32)cc1

1. -25.5
2. 8.33
3. -24.2
4. 4.68
5. -10.9

For every listed record, write down its inhibition.
1. Cc1ccc([N+](=O)[O-])cc1S(=O)(=O)N(C)/N=C\c1cnc2ccc(Br)cn12
2. C#CCC(CCCCCC)C(=O)O (stereo not drawn)
3. CO[C@H]1/C=C/O[C@@]2(C)Oc3c(C)c(O)c4c(O)c(c5c(c4c3C2=O)=NC2(CCN(CC(C)C)CC2)N=5)NC(=O)/C(C)=C\C=C\[C@H](C)[C@H](O)[C@@H](C)[C@@H](O)[C@@H](C)[C@H](OC(C)=O)[C@@H]1C
4. CON=C1CN(c2nc3c(cc2F)c(=O)c(C(=O)O)cn3C2CC2)CC1CN (stereo not drawn)
5. Cc1cc(C=CC#N)cc(C)c1Nc1ccnc(Nc2ccc(C#N)cc2)n1
6. CC(C)(O)[C@H]1CC[C@@](C)(C2[C@@H](O)C[C@@]3(C)[C@@H]4C[C@H](O)C5C(C)(C)[C@@H](O)CCC56CC46CC[C@]23C)O1 (stereo partly drawn)
7. CC(C)C(=O)SCCCCCCC(=O)Nc1nc(-c2ccccc2)cs1

[93.5, -1.96, 8.47, 24.5, 22.4, 14.5, 14.6]

For every listed record, write down its inhibition.
1. Nc1nc(NC2CC2)cc(-c2cccc(Cl)c2Cl)n1
2. NC(=S)NN=Cc1ncccc1N
3. CCC(Sc1nnc2c3ccccc3n(CC)c2n1)C(=O)Nc1ccccc1OC (stereo not drawn)
4. Cc1cc(C#N)cc(C)c1Oc1nc(Nc2ccc(C#N)cc2)nc(N)c1Br
5. Cc1cn(C2CC(O)C(COP(=O)(O)OP(=O)(O)OP(=O)(O)O)O2)c(=O)[nH]c1=O (stereo not drawn)
6. C[n+]1ccc(-c2c3nc(c(-c4cc[n+](C)cc4)c4ccc([nH]4)c(-c4cc[n+](C)cc4)c4nc(c(-c5cc[n+](C)cc5)c5ccc2[nH]5)C=C4)C=C3)cc1
7. CC1CNC(=O)NC1=O (stereo not drawn)
8. N#Cc1ccc(OC2CCC(NC(=O)CCSc3nc4ccccc4c(=O)[nH]3)CC2)cc1 (stereo not drawn)

1. -33.4
2. 14.3
3. -11.8
4. 0.249
5. 7.93
6. -34.4
7. -15.4
8. 15.6

For every listed record, write down its inhibition.
1. O=c1[nH]c(=S)[nH]c2nc(-c3ccccc3)c(-c3ccccc3)nc12
2. COc1cccc2c1C(=O)c1c(O)c3c(c(O)c1C2=O)CC(O)(C(=O)CO)CC3OC1CC(N)C(OC2CCCCO2)C(C)O1 (stereo not drawn)
3. CC1OC(n2cc(F)c(=O)[nH]c2=O)C(O)C1O (stereo not drawn)

1: 12.5; 2: 4.67; 3: -19.8
